System: CEM cells HIV-1 protection, formazan growth assay
assay_text: NCI AIDS Antiviral Assay
Activity calls are given as the source filed them.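 How the source made its calls: active means compounds giving half or more protection of infected cells from virus-caused growth loss, again on retest; inactive means the rest.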
Parameter call: string, one of active, inactive

Clc1nc(Nc2nc3ccccc3[nH]2)nc(Cl)c1-c1ccccc1
inactive
CC1=C/C(=C2/N=C(N(C)C)SS2)C(C)=N1
inactive
COc1ccc2c(c1)OC1c3ccccc3OCC21 (stereo not drawn)
inactive
COC1OC2COc3ccccc3OC2C2C1N2C(N)=O (stereo not drawn)
inactive

Hi, do you know how O=C(c1ccccc1)N1CCc2c([nH]c3ccccc23)C1 came out in this test?
inactive

Also, CN(C)c1nc(=Nc2ccc3c(c2)OCO3)ss1 please.
inactive
